- Tested on: Escherichia coli
- PROCEDURE SUMMARY: Inhibition of Escherichia coli MetAP at 10 uM after 15 mins by fluorescence analysis
Activity calls are given as the source filed them.
MEASURE: inhibition

Below, each entry is followed by its recorded inhibition result.
Give the reported inhibition for C/C(=C1/NC(=S)NC1=O)c1ccc(C2CCCCC2)cc1 (system: Escherichia coli).
58%

Try this compound next: O=C1CSC(=S)N1
inactive

Please answer likewise for CN(C)c1ccc(/C=C2\SC(=S)NC2=O)cc1
inactive

Likewise for CN(C)c1ccc(/C=C2\NC(=S)NC2=O)cc1 ?
75%

Same for C/C(=C1/SC(=S)NC1=O)c1ccc2ccccc2c1
inactive

Repeat for the following compound: COc1ccc(/C=C/C=C2\SC(=S)NC2=O)cc1
12%

Next up: COc1cc(/C=C2\NC(=S)NC2=O)ccc1O
26%

Please answer likewise for COc1cccc(/C=C2\SC(=O)NC2=O)c1
10%

Further cases:
Lab note: need inhibition with Escherichia coli for entry CC(=O)n1cc(/C=C2\SC(=S)NC2=O)c2ccccc21 , please look it up.
inactive

Query O=C1NC(=S)N[C@@H]1Cc1ccccc1 next
inactive

For CC(=O)N1C(=S)NC(=O)[C@@H]1Cc1c[nH]c2ccccc12 then?
inactive

Now try O=C1NC(=O)/C(=C/c2ccc(O)c(O)c2)N1 .
100%

Try O=C1NC(=S)S/C1=C\c1sccc1Br next.
inactive

* * *

- SYSTEM TESTED: Prothrombin (Bos taurus) (UniProt P00735)
- PROCEDURE SUMMARY: Inhibition of bovine plasma thrombin using Boc-Val-Pro-Arg-AMC as substrate at 25 uM preincubated for 15 mins measured after 10 mins by fluorimetric assay
Calls of active or inactive are those of the source.
MEASURE: inhibition

# value lookup — system Prothrombin (Bos taurus) (UniProt P00735), readout inhibition, item O=C1NC(=S)N/C1=C\C=C\c1ccco1
38%

Okay, and COc1cc(/C=C2\SC(=S)NC2=O)ccc1O ?
32%

Input O=C1NC(=O)/C(=C/c2ccc3ccccc3c2)N1
inactive

And the next one, O=C1NC(=S)N[C@H]1Cc1ccccc1 ?
inactive

Continuing:
Kindly state the measured inhibition obtained for O=C1NC(=S)N/C1=C\c1ccc(Br)s1 with Prothrombin (Bos taurus) (UniProt P00735).
17%

Further, for Cc1ccc(/C=C2\SC(O)=NC2=O)cc1 ?
18%

What do we get for O=C1NC(=S)S/C1=C\c1ccccn1 ?
inactive

* * *

- Test system: Escherichia coli
- PROCEDURE SUMMARY: Inhibition of Escherichia coli MurA using PEP as substrate assessed as inorganic phosphate release at 25 uM preincubated for 10 mins measured after 60 mins […]
The source made the active and inactive calls.
MEASURE: inhibition

Sample answers from the record:
Suppose we examine the compound O=C1NC(=O)/C(=C/c2cccc(O)c2)S1 ; what inhibition value has been reported?
inactive

Here is the next compound: O=C1NC(=S)S/C1=C\c1ccc(O)cc1
24%

Entry O=C1CSC(=S)N1 please
inactive

Would you kindly repeat that for O=C1NC(=O)/C(=C/c2ccc(Cl)s2)S1 ?
38%

Next compound up: O=C1NC(=O)/C(=C/c2ccco2)N1
10%

Consider the additional compound presented here.
Could you tell me which inhibition is on file for CN(C)c1ccc(/C=C2\SC(=S)NC2=O)cc1 ?
15%

* * *

- SYSTEM TESTED: Prothrombin (Bos taurus) (UniProt P00735)
- PROCEDURE SUMMARY: Inhibition of bovine plasma thrombin using Boc-Val-Pro-Arg-AMC as substrate at 25 uM preincubated for 15 mins measured after 10 mins by fluorimetric assay
The source made the active and inactive calls.
MEASURE: inhibition

# example entries with known answers
Given the entry O=C1NC(=S)S/C1=C\c1cccs1 , report its measured inhibition.
18%

Query O=C1NC(=S)N[C@@H]1Cc1ccccc1 next
12%

Note, next up: O=C1NC(=O)/C(=C/c2ccco2)N1
23%

Input O=C1NC(=S)N/C1=C\c1ccc2ccccc2c1
27%

Please turn your attention to the following entry.
Consider the compound NCCCC[C@@H]1NC(=S)NC1=O and give its measured inhibition.
inactive

* * *

- Tested on: Escherichia coli
- PROCEDURE SUMMARY: Inhibition of Escherichia coli MurA using PEP as substrate assessed as inorganic phosphate release at 25 uM preincubated for 10 mins measured after 60 mins […]
Active and inactive are the calls of the source.
MEASURE: inhibition

Example molecules with recorded inhibition:
# query: inhibition of entry Cn1cc(/C=C2\NC(=O)NC2=O)c2ccccc21
inactive

Next record, please: O=C1NC(=S)S/C1=C1/CCOc2ccccc21
inactive

CC(=O)N1C(=S)NC(=O)[C@@H]1Cc1ccc(O)cc1 , same question.
inactive

For COc1ccc(/C=C/C=C2\SC(=S)NC2=O)cc1 then?
62%

Try the molecule O=C1NC(=S)N/C1=C\C=C\c1ccco1
69%

More entries:
Report inhibition for O=C1CNC(=S)N1 please.
inactive

Consider next the molecule O=C1NC(=S)N/C1=C\c1sccc1Cl in the same way.
19%

// next record C/C(=C1/SC(=S)NC1=O)c1ccccc1
33%

Likewise for O=C1NC(=O)C(Cc2ccc(O)c(O)c2)N1 (stereo not drawn) ?
79%

* * *

- System: Dengue virus
- PROCEDURE SUMMARY: Inhibition of Dengue virus NS2B-NS3 protease using Abz-NleKRRS-3-(NO2)Y as substrate at 50 uM preincubated for 15 mins measured every sec for 15 mins by fluorimetric analysis
Calls of active or inactive are those of the source.
MEASURE: inhibition

Here's what some known entries look like.
Requested read-out: inhibition. Entry: CCCC/C=C1\NC(=S)NC1=O
25%

Item: O=C1NC(=O)/C(=C/C=C/c2ccco2)S1
inactive

For O=C1NC(=O)/C(=C/c2ccc(Cl)s2)S1 then?
11%

Would you mind doing O=C1NC(=O)C(Cc2ccc(O)c(O)c2)N1 (stereo not drawn) as well?
inactive

What do you have for O=C1NC(=O)/C(=C2\CCOc3ccccc32)S1 ?
35%

More entries:
Please report the recorded inhibition for COc1cc(/C=C2\SC(=O)NC2=O)ccc1O .
19%

Likewise for CCC/C=C/C1NC(=S)NC1=O (stereo not drawn) ?
inactive

Okay, and COc1cccc(/C=C2\NC(=O)NC2=O)c1 ?
18%

* * *

- SYSTEM TESTED: Prothrombin (Bos taurus)
- PROCEDURE SUMMARY: Inhibition of bovine plasma thrombin using Boc-Val-Pro-Arg-AMC as substrate at 25 uM preincubated for 15 mins measured after 10 mins by fluorimetric assay
Activity calls are given as the source filed them.
MEASURE: inhibition

Would you please look over these solved cases?
Param readout= inhibition; system= Prothrombin (Bos taurus); entry= COc1cccc(/C=C2\SC(=O)NC2=O)c1 ; returns value.
11%

Repeat for the following compound: O=C1NC(=O)/C(=C2\CCOc3ccccc32)S1
inactive

Lookup COc1ccc(/C=C2\SC(=O)NC2=O)cc1
32%

Next compound up: COc1ccc(/C=C2\NC(=O)NC2=O)cc1OC
inactive

Continue with O=C1NC(=S)S/C1=C\c1cnc[nH]1
31%

***
Missing value: inhibition, Prothrombin (Bos taurus), entry O=C1NC(=S)S/C1=C\c1ccco1 . Fill in?
25%

Another compound to look at: O=C1CSC(=O)N1
inactive

Query O=C1NC(=O)/C(=C/c2ccccn2)S1 next
29%

Repeat with O=C1CNC(=S)N1
inactive

Input COc1cc(/C=C2\NC(=S)NC2=O)ccc1O
23%

O=C1NC(=O)/C(=C/c2ccc([N+](=O)[O-])cc2)S1 , same question.
inactive

Moving on to O=C1NC(=S)N/C1=C\c1sccc1Cl
19%

Next: CC(=O)N1C(=S)NC(=O)[C@@H]1CCC(N)=O
inactive

* * *

- Tested on: Escherichia coli
- PROCEDURE SUMMARY: Inhibition of Escherichia coli MetAP at 10 uM after 15 mins by fluorescence analysis
Active and inactive are the calls of the source.
MEASURE: inhibition

Use these answered entries as a reference point.
For the molecule shown here, O=C1NC(=O)/C(=C/c2cccc(O)c2)S1 , give the reported inhibition.
11%

Note, next up: Cc1ccc(/C=C2\SC(O)=NC2=O)cc1
inactive

# iterate: O=C1NC(=S)S/C1=C\c1cccc(O)c1
12%

Can you handle O=C1NC(=S)S/C1=C\c1sccc1Cl next?
inactive

Another molecule to check: CCCC/C=C/C1NC(=S)NC1=O (stereo unspecified)
inactive

How about this molecule: COc1cc(/C=C2\SC(=S)NC2=O)ccc1O
12%

# context switch: different molecule, same inhibition
# query: inhibition of entry O=C1NC(=O)/C(=C/c2cccs2)N1
inactive

* * *

- SYSTEM TESTED: Prothrombin (Bos taurus) (UniProt P00735)
- PROCEDURE SUMMARY: Inhibition of bovine plasma thrombin using Boc-Val-Pro-Arg-AMC as substrate at 25 uM preincubated for 15 mins measured after 10 mins by fluorimetric assay
The source made the active and inactive calls.
MEASURE: inhibition

Return inhibition measured with Prothrombin (Bos taurus) (UniProt P00735) given this molecule: O=C1NC(=O)/C(=C/c2ccc(Cl)cc2Cl)S1
28%

Next: O=C1NC(=O)/C(=C/c2ccc(O)cc2)N1
14%

Moving on to O=C1NC(=O)/C(=C/C=C/c2ccco2)S1
24%

Note, next up: CN(C)c1ccc(/C=C2\NC(=O)NC2=O)cc1
16%

Likewise for C/C(=C1/SC(=S)NC1=O)c1ccc2ccccc2c1 ?
23%

Continuing:
Observed inhibition on Prothrombin (Bos taurus) (UniProt P00735) for C/C(=C1/NC(=S)NC1=O)c1ccccc1 , please.
21%

Then this molecule: O=C1NC(=O)/C(=C/c2ccc(O)cc2)S1
34%

Param item: O=C1NC(=O)/C(=C/c2ccc([N+](=O)[O-])cc2)N1
inactive

Query C/C(=C1/NC(=S)NC1=O)c1ccc(F)cc1 next
23%

And for COc1ccccc1/C=C1\SC(=O)NC1=O ?
11%

Same question, O=C1NC(=S)S/C1=C\c1ccc(Cl)s1 this time
27%

Same read-out for O=C1NC(=S)NC1Cc1ccc(O)c(O)c1 (stereo not drawn) ?
inactive

// repeat for O=C1NC(=S)S/C1=C\c1ccc2ccccc2c1 and report
28%
